Target: HCV NS3 helicase NS3h_1b(con1) (Hepatitis C virus genotype 1b)
Construct: truncated C-terminally His-tagged NS3 proteins lacking the N-terminal protease, called NS3h; His-tag (C); made in house
Test: MBHA screen of NCI mechanistic set library at 20 μM (percent inhibition, compound interference)
Assay type: biochemical
Conditions: compounds at 20 μM, MBHA with DNA substrate; assay interference calculated with Equation 2
Output yes (1) for Int.* (Ratio) (Interference) not less than 0.9 Ratio; output no (0) otherwise.

Example cases with answers are listed next.
compound	assayed.target	category
C=C1CC(Cn2cc(Br)c(=O)[nH]c2=O)(c2ccc(-c3ccccc3)cc2)OC1=O (stereo not drawn)	HCV NS3 helicase NS3h_1b(con1) (Hepatitis C virus genotype 1b)	yes (1)
O=[N+]([O-])c1cccc2nc3ccccc3c(NCCCNc3c4ccccc4nc4cccc([N+](=O)[O-])c34)c12	HCV NS3 helicase NS3h_1b(con1) (Hepatitis C virus genotype 1b)	no (0)
COC1C(C)OC(OC2CC(C)(O)Cc3cc4c(c(O)c32)C(=O)c2c(O)cc3c(c2C4=O)OC2OC3(C)C(O)C(N(C)C)C2O)C(OC)C1(C)OC (stereo not drawn)	HCV NS3 helicase NS3h_1b(con1) (Hepatitis C virus genotype 1b)	no (0)
S=C=NCc1ccccc1	HCV NS3 helicase NS3h_1b(con1) (Hepatitis C virus genotype 1b)	yes (1)
O=C(ON=C1c2ccccc2C(Br)C(Br)c2ccccc21)c1ccccc1 (stereo not drawn)	HCV NS3 helicase NS3h_1b(con1) (Hepatitis C virus genotype 1b)	yes (1)

// query Answer whether Int.* (Ratio) (Interference) of C/C(=N\NC(=S)N(C)C)c1ccccn1.[Cu][Br] is greater than or equal to 0.9 Ratio.
// result yes (1)

// query Hi, just wondering whether Cc1ccc(S(=O)(=O)c2ccc([N+](=O)[O-])o2)cc1 shows Int.* (Ratio) (Interference) of 0.9 Ratio or higher.
// result yes (1)

// query Test whether the compound C[C@@H]1C[C@H]2OC(=O)[C@@]3(C)CCC[C@@](C)([C@@H]23)[C@@]1(O)CCc1ccoc1 records Int.* (Ratio) (Interference) of 0.9 Ratio or higher.
// result no (0)

// query // inclusive: Int.* (Ratio) (Interference) at least 0.9 Ratio? input: Nc1nc(N)c2cc(Sc3cccc(C(F)(F)F)c3)ccc2n1
// result no (0)

// query Say whether O=c1oc2cc(O)ccc2c2oc3cc(O)ccc3c12 shows Int.* (Ratio) (Interference) of 0.9 Ratio or more.
// result yes (1)

###

Target: HCV NS3 helicase NS3h_1b(con1) (Hepatitis C virus genotype 1b)
Construct: truncated C-terminally His-tagged NS3 proteins lacking the N-terminal protease, called NS3h; His-tag (C); made in house
Assay: MBHA screen of NCI mechanistic set library at 20 μM (percent inhibition, compound interference)
Type: biochemical
Details: compounds at 20 μM, MBHA with DNA substrate; calculated from Equation 1
recorded.metric: Inh. (%) (Inhibition)
State the value with its unit after it.

In the examples that follow, each entry is paired with its recorded Inh. (%) (Inhibition).
compound	Inh. (%) (Inhibition)
CC(C)(C)[Si](C)(C)OCC1CCC(n2cnc3c(N)ncnc32)O1 (centres unmarked)	−12.6%
CN(C)c1ccc(/C=C2\CCc3ccccc3C2=O)cc1Br	−2.2%
CCOC(=O)/C=C/c1c(C)[nH]c(=O)[nH]c1=O	−0.8%
Cc1ccc(NC(=O)c2cccc([N+](=O)[O-])c2O)c(C)c1	−14.5%

Moving on to the next compound.
// query Given the compound O=C1Oc2ccccc2C(=O)/C1=C1\C=C(c2ccccc2)SS1 , what is its reported Inh. (%) (Inhibition)?
// result −14.7%

###

Target: HCV NS3 helicase NS3h_1b(con1) (Hepatitis C virus genotype 1b, UniProt Q9WMX2)
Construct: truncated C-terminally His-tagged NS3 proteins lacking the N-terminal protease, called NS3h; His-tag (C); made in house
Sequence (Q9WMX2 1192-1657): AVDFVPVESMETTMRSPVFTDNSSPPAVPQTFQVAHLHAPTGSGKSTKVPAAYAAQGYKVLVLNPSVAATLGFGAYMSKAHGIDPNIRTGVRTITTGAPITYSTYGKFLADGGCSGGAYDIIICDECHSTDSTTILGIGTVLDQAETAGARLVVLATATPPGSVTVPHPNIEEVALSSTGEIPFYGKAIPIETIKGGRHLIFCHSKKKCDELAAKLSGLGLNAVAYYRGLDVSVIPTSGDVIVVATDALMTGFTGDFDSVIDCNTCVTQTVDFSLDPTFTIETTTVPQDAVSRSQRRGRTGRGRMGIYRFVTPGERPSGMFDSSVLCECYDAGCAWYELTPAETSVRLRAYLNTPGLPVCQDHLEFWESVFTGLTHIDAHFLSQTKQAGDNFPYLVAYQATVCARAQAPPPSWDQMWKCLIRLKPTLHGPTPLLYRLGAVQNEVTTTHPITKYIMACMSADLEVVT
Assay: MBHA screen of NCI mechanistic set library at 20 μM (percent inhibition, compound interference)
Type: biochemical
Conditions: compounds at 20 μM; assay interference calculated with Equation 2 (fluorescence vs DMSO-only controls before ATP)
Decide using Int.* (Ratio) (Interference): a value greater than or equal to 0.9 Ratio is t, a smaller one is f.

Reference set, count: 5
molecule	category
Cc1ccc(CC2(OCCN(C)C)CCC(C(C)(C)C)CC2)cc1.O=C(O)/C=C/C(=O)O (stereo not shown)	t
C1COCCN1.S=C(S)N1CCOCC1	t
Cc1nn(-c2ccccc2)c2c1CC(=O)Nc1ccccc1-2	t
O=C1c2ccccc2C(=O)c2sc(Nc3ccc(Cl)cc3)nc21	t
C=CC(=O)N1C/C(=C\c2ccc(Cl)cc2)C(=O)/C(=C/c2ccc(Cl)cc2)C1	t

// query Please indicate if the recorded Int.* (Ratio) (Interference) for C/C1=C\[C@H](C)C[C@H](C)OC(=O)CC(c2ccc(O)cc2)NC(=O)[C@@H](Cc2c(Br)[nH]c3ccccc23)N(C)C(=O)[C@H](C)NC(=O)[C@@H](C)C1 (stereo partly shown) meets or exceeds 0.9 Ratio.
// result t

// query Is reported Int.* (Ratio) (Interference) greater than or equal to 0.9 Ratio here: COc1ccc2c(c1)C=C([N+](=O)[O-])C(C1OC(C)(C)OC1C1COC(C)(C)O1)O2 (stereo not shown)
// result t

// query Decide: Int.* (Ratio) (Interference) of Nc1ncnc2c1nnn2[C@@H]1O[C@H](CO)[C@@H](O)[C@H]1O >= 0.9 Ratio?
// result t

// query State whether the measured Int.* (Ratio) (Interference) reaches 0.9 Ratio, counting equality as reaching it, for C[CH2][Ge]([CH2]C)([CH2]C)[O]C(=O)CCC(=O)[O][Ge]([CH2]C)([CH2]C)[CH2]C
// result t

###

Target: HCV NS3 helicase NS3h_1b(con1) (Hepatitis C virus genotype 1b)
Construct: truncated C-terminally His-tagged NS3 proteins lacking the N-terminal protease, called NS3h; His-tag (C); made in house
Test: MBHA screen of NCI mechanistic set library at 20 μM (percent inhibition, compound interference)
Assay type: biochemical
Details: compounds at 20 μM, MBHA with DNA substrate; calculated from Equation 1
Measured Inh. (%) (Inhibition) accompanies every entry in the list below.
Enter your answer as a number in %; do not include the unit.

Reference set (6 entries):
compound	assayed.target	value.measured
NC(=O)OCc1c(O)c2c(c(O)c1COC(N)=O)C(=O)C=CC2=O	HCV NS3 helicase NS3h_1b(con1) (Hepatitis C virus genotype 1b)	37.7
O=C1NC(=S)NC(=O)C1C(=O)Nc1ccccc1	HCV NS3 helicase NS3h_1b(con1) (Hepatitis C virus genotype 1b)	17.4
COc1ccc(NC(=O)C(=O)/C=C(\O)c2ccccc2)cc1	HCV NS3 helicase NS3h_1b(con1) (Hepatitis C virus genotype 1b)	−7.9
CC(C)C1=C(O)C2=C(C(=O)C1=O)C1(C)CCCC(C)(C)C1CC2O (centres unmarked)	HCV NS3 helicase NS3h_1b(con1) (Hepatitis C virus genotype 1b)	−15.9
COc1ccc2c(c1)CCc1c-2n[nH]c1-c1[nH]nc2c1CCc1cc(OC)ccc1-2	HCV NS3 helicase NS3h_1b(con1) (Hepatitis C virus genotype 1b)	2.1
NC(=O)C1=C[C@H]2[C@H]3C=C[C@@]2(O)C(=O)O[C@@H]3O1	HCV NS3 helicase NS3h_1b(con1) (Hepatitis C virus genotype 1b)	2.7

// query Entry under review: [Cl-].c1csc(C[N+]23CN4CN(CN(C4)C2)C3)c1 . Reported Inh. (%) (Inhibition)?
// result 21.2

// query Requested field: Inh. (%) (Inhibition). Item: COc1ccc(-n2/c(=N/C(=S)N(C)C)ss/c2=N\C(=S)N(C)C)cc1
// result −14.9

// query Can you share its Inh. (%) (Inhibition)? I mean this compound: Cc1ccc(S(=O)(=O)c2ccc([N+](=O)[O-])o2)cc1
// result −14.4

// query Any idea what Inh. (%) (Inhibition) was measured for CO[C@@H](/C(C)=C/C=C/C(C)=C/c1coc(C)n1)[C@@H](C)[C@@H]1C[C@H](O)[C@@]2(C)O[C@@H]2/C=C/[C@@H](C)[C@H]2C[C@H](CC(=O)O2)C[C@@H]2O[C@H]2C(=O)O1 ?
// result −11.7

// query Given the compound C=C(Cl)C(Cl)(CBr)CCC(Br)C(C)(C)Cl (centres unmarked) , what is its reported Inh. (%) (Inhibition)?
// result 14.5

// query Look up Inh. (%) (Inhibition) for this compound: COc1cccc2c1cc([N+](=O)[O-])c1c(C(=O)O)cc3c(c12)OCO3
// result −12.8

// query // Inh. (%) (Inhibition) lookup, key: N[C@@H](CN(O)N=O)C(=O)O
// result 18.9

// query Quick one: Inh. (%) (Inhibition) of CC1OC(O[C@@H]2C=C3CC[C@@H]4[C@H](CC[C@]5(C)[C@@H](c6ccc(=O)oc6)CC[C@]45O)[C@@]3(C)CC2)C(O)C(O)C1O (some centres unmarked) ?
// result 5.5

// query Would you kindly share the measured Inh. (%) (Inhibition) for Cc1ccc([N+](=O)[O-])cc1NC(=O)c1cccc([N+](=O)[O-])c1O ?
// result −11.9

// query Give the measured Inh. (%) (Inhibition) of O=C1c2cccc(O)c2C(=O)c2c(O)cccc21 .
// result −0.5

// query Inh. (%) (Inhibition) for CCOc1ccccc1NC(=O)CC1Sc2ccccc2NC1=O (centres unmarked) ?
// result 21.2
